Value source: patent US20240132593A1

- test target: T1, VISTA-His ECD (Sino Biological 13482-H08H) (human, UniProt Q9H7M9 33-194)
- T1 construct: Bought protein; also called VISTA-ECD; not shown: His tag
- assay protocol: BLI (Octet K2), ratio of off-rates at pH 7.4 to control Ab No. 245.1
Recorded Kdis (pH 7.4) ÷ Kdis, Ab No. 245.1 (pH 7.4) by entry
measured metric: Kdis (pH 7.4) ÷ Kdis, Ab No. 245.1 (pH 7.4) (s⁻¹)

* Antibody No. 474.1 with VH Y32H, VH Y52H (antibody, V domains shown) VH: QVQLQESGPGLVKPSETLSLTCTVSGGSISSHYWSWIRQPPGKGLEWIGYIHYSGSTNYNPSLKSRVTISVDTSKSQFSLKLSSVTAADTAVYYCARDIPAFAFDIWGQGTMVIVSS VL: EIVLTQSPATLSLSPGERATLSCRASQSVSYYLAWYQQKPGQAPRLLIYDAFNRATGIPARFSGSGSGTDFTLTISSLEPEDFAVYYCQQRINWPLTFGGGTKVEIK | 5
* Antibody No. 474.1 with VH Y32H, VH Y33H (antibody, V domains shown) VH: QVQLQESGPGLVKPSETLSLTCTVSGGSISSHHWSWIRQPPGKGLEWIGYIYYSGSTNYNPSLKSRVTISVDTSKSQFSLKLSSVTAADTAVYYCARDIPAFAFDIWGQGTMVIVSS VL: EIVLTQSPATLSLSPGERATLSCRASQSVSYYLAWYQQKPGQAPRLLIYDAFNRATGIPARFSGSGSGTDFTLTISSLEPEDFAVYYCQQRINWPLTFGGGTKVEIK | 4
* Antibody No. 474.1 with VL Y32H, VH Y33H (antibody, V domains shown) VH: QVQLQESGPGLVKPSETLSLTCTVSGGSISSYHWSWIRQPPGKGLEWIGYIYYSGSTNYNPSLKSRVTISVDTSKSQFSLKLSSVTAADTAVYYCARDIPAFAFDIWGQGTMVIVSS VL: EIVLTQSPATLSLSPGERATLSCRASQSVSYHLAWYQQKPGQAPRLLIYDAFNRATGIPARFSGSGSGTDFTLTISSLEPEDFAVYYCQQRINWPLTFGGGTKVEIK | 52
* Antibody No. 474.1 with VL Y31H, VH Y32H, VH Y33H (antibody, V domains shown) VH: QVQLQESGPGLVKPSETLSLTCTVSGGSISSHHWSWIRQPPGKGLEWIGYIYYSGSTNYNPSLKSRVTISVDTSKSQFSLKLSSVTAADTAVYYCARDIPAFAFDIWGQGTMVIVSS VL: EIVLTQSPATLSLSPGERATLSCRASQSVSHYLAWYQQKPGQAPRLLIYDAFNRATGIPARFSGSGSGTDFTLTISSLEPEDFAVYYCQQRINWPLTFGGGTKVEIK | 68
* Antibody No. 474.1 with VL Y31H, VH Y52H (second of two rows so labelled, the 40th table r13) (antibody, human IgG1, V domains shown) VH: QVQLQESGPGLVKPSETLSLTCTVSGGSISSYYWSWIRQPPGKGLEWIGYIHYSGSTNYNPSLKSRVTISVDTSKSQFSLKLSSVTAADTAVYYCARDIPAFAFDIWGQGTMVIVSS VL: EIVLTQSPATLSLSPGERATLSCRASQSVSHYLAWYQQKPGQAPRLLIYDAFNRATGIPARFSGSGSGTDFTLTISSLEPEDFAVYYCQQRINWPLTFGGGTKVEIK | 37
